Reference for the values: paper PMC6843717

testDetails: Tissue distribution after single IP or PO dose
Format: in vivo, BALB/c mice
testConditions: female, BALB/c, mouse, lungs, ip, 10 mg/kg, Tmax; IP 10 mg/kg; mean ± SEM
propertyLabel: Tmax (min)
Give the value, in units of min, as a plain number.

Given item "CCn1c2ccccc2c2cc(-n3nncc3-c3ccccc3)ccc21" , the value recorded as its Tmax is 30

* * *

testDetails: Plasma pharmacokinetics after single IP or PO dose
Format: in vivo, Balb/c mice
testConditions: female, BALB/c, mouse, plasma, ip, 10 mg/kg
propertyLabel: half-life
Please make sure the unit comes right after the number.

Given item "CCn1c2ccccc2c2cc(-n3nncc3-c3ccccc3)ccc21" , the value recorded as its half-life is 2.17 h
